Sourced from PubChem BioAssay AID1918937

- Tested on: 521955-158-R2-J5-PDC complex spheroid viability;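 note: spheroids exposed to agents for seven days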
- ASSAY OVERVIEW: Anticancer human tumor 521955-158-R2-J5-PDC patient-derived pancreatic carcinoma cell line growth inhibition; active = viability on the fitted dose curve at most 10% of control; inactive = the rest
- MEASUREMENT PARAMETERS: second compound 0.316 µM; first compound 10 µM
Your answer must be one of the following: T (active), F (inactive)

These solved cases illustrate the format of a correct answer.
| COMPOUND | MEASURED TARGET | ASSIGNED LABEL |
| --- | --- | --- |
| CC(C)c1c(-c2ccccc2)nc2c(C#N)c[nH]n2c1=O + NC1CCC(NC2CC2c2ccccc2)CC1 | 521955-158-R2-J5-PDC complex spheroid viability | F |
| CC1(C)CCC(CN2CCN(c3ccc(C(=O)NS(=O)(=O)c4ccc(NCC5CCOCC5)c([N+](=O)[O-])c4)c(Oc4cnc5[nH]ccc5c4)c3)CC2)=C(c2ccc(Cl)cc2)C1 + NC1CC1c1ccc(-c2cccc(O)c2)cc1 | 521955-158-R2-J5-PDC complex spheroid viability | T |
| O=C(c1cc(Cc2n[nH]c(=O)c3ccccc23)ccc1F)N1CCN(C(=O)C2CC2)CC1 + NC1CC1c1ccc(-c2cccc(O)c2)cc1 | 521955-158-R2-J5-PDC complex spheroid viability | F |
| CC1COCCN1c1cc(C2(S(C)(=N)=O)CC2)nc(-c2ccnc3[nH]ccc23)n1 (stereo unspecified) + NC1CC1c1ccc(-c2cccc(O)c2)cc1 | 521955-158-R2-J5-PDC complex spheroid viability | F |

QUERY: Can you look up the reported call for O=C(c1cc(Cc2n[nH]c(=O)c3ccccc23)ccc1F)N1CCN(C(=O)C2CC2)CC1 + NC1CCC(NC2CC2c2ccccc2)CC1 for me?
RESULT: F

QUERY: Can you look up the reported call for COc1ccc([C@@H](O)c2cc(-c3ncnc4cc(N5CCOCC5)ccc34)c(F)cc2Cl)nn1 + NC1CCC(NC2CC2c2ccccc2)CC1 for me?
RESULT: F
